The measurements presented in this section are drawn from patent US20250170248A1.

STUDY TARGET: SMARCA2 (Homo sapiens)
Sequence (P51531 whole entry): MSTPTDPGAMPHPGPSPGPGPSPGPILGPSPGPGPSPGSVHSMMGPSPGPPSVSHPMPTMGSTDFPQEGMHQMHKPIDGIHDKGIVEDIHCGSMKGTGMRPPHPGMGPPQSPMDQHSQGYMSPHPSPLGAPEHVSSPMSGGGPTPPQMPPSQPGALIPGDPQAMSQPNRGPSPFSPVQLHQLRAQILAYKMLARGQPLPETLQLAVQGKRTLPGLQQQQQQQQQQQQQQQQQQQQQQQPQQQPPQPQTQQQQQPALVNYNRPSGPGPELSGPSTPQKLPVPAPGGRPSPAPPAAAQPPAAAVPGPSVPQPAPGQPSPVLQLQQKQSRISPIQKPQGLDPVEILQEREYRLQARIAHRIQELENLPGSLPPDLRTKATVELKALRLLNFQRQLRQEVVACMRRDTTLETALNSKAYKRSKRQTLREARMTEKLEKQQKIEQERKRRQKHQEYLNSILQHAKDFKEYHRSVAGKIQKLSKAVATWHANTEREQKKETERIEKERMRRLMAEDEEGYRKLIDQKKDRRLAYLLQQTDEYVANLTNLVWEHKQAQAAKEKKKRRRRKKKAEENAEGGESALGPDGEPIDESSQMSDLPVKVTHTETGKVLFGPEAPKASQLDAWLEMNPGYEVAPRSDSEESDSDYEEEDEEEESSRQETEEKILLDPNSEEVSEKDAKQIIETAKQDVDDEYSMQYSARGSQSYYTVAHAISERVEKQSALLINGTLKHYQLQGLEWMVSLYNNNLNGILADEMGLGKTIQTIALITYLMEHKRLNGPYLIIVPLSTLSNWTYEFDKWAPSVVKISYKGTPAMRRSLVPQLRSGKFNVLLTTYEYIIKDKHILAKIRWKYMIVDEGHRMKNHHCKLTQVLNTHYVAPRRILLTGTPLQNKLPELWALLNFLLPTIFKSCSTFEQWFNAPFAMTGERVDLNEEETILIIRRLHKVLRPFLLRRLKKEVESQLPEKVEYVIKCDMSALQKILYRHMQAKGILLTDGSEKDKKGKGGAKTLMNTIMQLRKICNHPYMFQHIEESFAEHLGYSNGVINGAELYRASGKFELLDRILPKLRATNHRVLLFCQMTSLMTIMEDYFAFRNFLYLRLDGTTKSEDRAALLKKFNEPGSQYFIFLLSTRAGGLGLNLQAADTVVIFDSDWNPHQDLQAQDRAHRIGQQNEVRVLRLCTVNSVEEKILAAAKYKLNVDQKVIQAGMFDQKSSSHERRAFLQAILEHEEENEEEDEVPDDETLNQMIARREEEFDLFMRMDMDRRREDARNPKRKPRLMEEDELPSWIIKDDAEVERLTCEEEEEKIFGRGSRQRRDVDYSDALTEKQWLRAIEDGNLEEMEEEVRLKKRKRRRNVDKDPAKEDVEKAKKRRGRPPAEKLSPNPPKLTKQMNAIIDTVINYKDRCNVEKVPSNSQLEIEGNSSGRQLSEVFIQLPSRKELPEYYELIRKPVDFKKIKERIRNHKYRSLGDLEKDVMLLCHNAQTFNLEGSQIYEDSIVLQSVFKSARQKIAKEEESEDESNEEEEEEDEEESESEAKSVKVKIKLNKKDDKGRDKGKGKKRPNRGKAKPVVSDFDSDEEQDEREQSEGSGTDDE
ASSAY PROCEDURE: MSD SMARCA2 degradation in A549 cell line
Assay type: cell-based
SETUP CONDITIONS: A549, A549 cells, 24 h
Each record here notes measured Dmax.

A selection of reference data follows.
COMPOUND: Cc1ncsc1-c1ccc(CNC(=O)[C@@H]2C[C@@H](O)CN2C(=O)[C@@H](OC(=O)N2CC3(CC(N4CCN(c5cnc(N6CCN7c8cc(-c9ccccc9O)nnc8NC[C@H]7C6)nc5)CC4)C3)C2)C(C)(C)C)cc1
Dmax: > 90%

COMPOUND: C#Cc1ccc(CNC(=O)[C@@H]2C[C@@H](O)CN2C(=O)[C@@H](NC(=O)N2CC3(CC(N4CCC(c5cnc(N6CCc7[nH]c8nnc(-c9ccccc9O)cc8c7[C@H]6C)nc5)CC4)C3)C2)C(C)(C)C)cc1F
Dmax: > 90%

COMPOUND: C#Cc1ccc(CNC(=O)[C@@H]2C[C@@H](O)CN2C(=O)[C@@H](NC(=O)N2CCN(C[C@H]3CC[C@H](N4CCC(N5CCN6c7cc(-c8ccccc8O)nnc7NC[C@H]6C5)CC4)CC3)CC2)C(C)(C)C)cc1
Dmax: 70 to 90%

COMPOUND: C#Cc1ccc([C@H](C)NC(=O)[C@@H]2C[C@@H](O)CN2C(=O)[C@@H](NC(=O)[C@H]2CC3(C2)C[C@H](c2cnc(N4CCC(N5CCN6c7cc(-c8ccccc8O)nnc7NC[C@H]6C5)CC4)nc2)C3)C(C)(C)C)cc1 (stereo partly drawn)
Dmax: > 90%

COMPOUND: C#Cc1ccc(CNC(=O)[C@@H]2C[C@@H](O)CN2C(=O)[C@@H](NC(=O)C2CCC3(CC2)CC(N2CCC(c4ccc(N5CCN6c7cc(-c8ccccc8O)nnc7NC[C@H]6C5)cc4)CC2)C3)C(C)(C)C)cc1 (stereo partly drawn)
Dmax: < 50%

Requested read-out: Dmax. Entry: Cc1ncsc1-c1ccc(CNC(=O)[C@@H]2C[C@@H](O)CN2C(=O)C(c2cc(N3CC4(CC(N5CCC(c6cnc(N7CCc8[nH]c9nnc(-c%10ccccc%10O)cc9c8[C@H]7C)nc6)CC5)C4)C3)no2)C(C)C)cc1 (single isomer, unassigned) > 90%

Let us now turn to Cc1ncsc1-c1ccc(CNC(=O)[C@@H]2C[C@@H](O)CN2C(=O)[C@@H](NC(=O)C2CC3(C2)CC(N2CCC(N4CCC(N5CCN6c7cc(-c8ccccc8O)nnc7NC[C@H]6C5)CC4)CC2)C3)C(C)(C)C)cc1 (stereo partly drawn) > 90%

// repeat for C#Cc1ccc([C@H](C)NC(=O)[C@@H]2C[C@@H](O)CN2C(=O)[C@@H](NC(=O)N2CC3(C2)CN(C2CCN(c4cnc(N5CCc6[nH]c7nnc(-c8ccccc8O)cc7c6[C@H]5C)nc4)CC2)C3)C(C)(C)C)cc1 and report > 90%

Request: C#Cc1ccc(CNC(=O)[C@@H]2C[C@@H](O)CN2C(=O)[C@@H](NC(=O)[C@H]2CCC3(CC2)C[C@H](N2CCC(c4cnc(N5CCN6c7cc(-c8ccccc8O)nnc7NC[C@H]6C5)nc4)CC2)C3)C(C)(C)C)c(OCCCOC)c1 (single isomer, unassigned) > 90%

* * *

Entries and their DC50 values follow.
STUDY TARGET: SMARCA4 (Homo sapiens)
Construct: SMARCA2/SMARCA4 protein degradation selectivity in MV4-11 cells; endogenous in cells; host or cells: MV4-11
ASSAY PROCEDURE: SMARCA4 Western blot degradation in MV4-11 cells
Format: cell-based
SETUP CONDITIONS: MV4-11 cells, 24 h; read-out: SMARCA4 MSD MV411 degradation 24 h: Mean external-Abs DC50
Protocol: Example 11. SMARCA2 and SMARCA4 Western Blot MV4-11 Degradation Cells were seeded into 6-well plates (MV4-11:4×10^6 cells/well/1 ml) and 1 ml of 2× compound solution was added into the well to make the final concentration and the plates were mixed well and incubated for 24 hours (No cytotoxicity was observed). The cell were collected with media and spun at 3000 rpm for 5 minutes. […] The membrane was washed three times with 5 minutes each and lastly the LiCOR was read. […]

Take a look at these entries with their results.
COMPOUND: CC#Cc1ccc(CNC(=O)[C@@H]2C[C@@H](O)CN2C(=O)[C@@H](NC(=O)N2CC3(CC(N4CCC(c5cnc(N6CCc7[nH]c8nnc(-c9ccccc9O)cc8c7[C@H]6C)nc5)CC4)C3)C2)C(C)(C)C)c(OC)c1 [I-271]
DC50: > 100 nM
//
COMPOUND: C#Cc1ccc(CNC(=O)[C@@H]2C[C@@H](O)CN2C(=O)[C@@H](NC(=O)N2CC3(CC(N4CCC(N5CCc6[nH]c7nnc(-c8ccccc8O)cc7c6[C@H]5C)CC4)C3)C2)C(C)(C)C)cc1 [I-191]
DC50: > 100 nM
//
COMPOUND: Cc1ncsc1-c1ccc(CNC(=O)[C@@H]2C[C@@H](O)CN2C(=O)[C@@H](NC(=O)[C@H]2CC3(CC[C@H](N4CCN(c5ccnc(N6CCc7[nH]c8nnc(-c9ccccc9O)cc8c7[C@H]6C)n5)CC4)CC3)C2)C(C)(C)C)cc1 (stereo partly shown) [I-80]
DC50: 1 to 10 nM

Then this compound:
Param item = CC(C)(C)[C@H](NC(=O)[C@H]1CCC2(CC1)C[C@H](N1CCC(c3cnc(N4CCN5c6cc(-c7ccccc7O)nnc6NC[C@H]5C4)nc3)CC1)C2)C(=O)N1C[C@H](O)C[C@H]1C(=O)NCC#Cc1ccc(Cl)cc1 (single isomer, unassigned) [I-101] ; retrieve measured DC50. > 100 nM

* * *

Reported DC50 values follow for various molecules
STUDY TARGET: SMARCA4 (Homo sapiens, UniProt P51532)
Construct: SMARCA2/SMARCA4 protein degradation selectivity in MV4-11 cells; endogenous in cells; host or cells: MV4-11
Sequence (P51532 whole entry): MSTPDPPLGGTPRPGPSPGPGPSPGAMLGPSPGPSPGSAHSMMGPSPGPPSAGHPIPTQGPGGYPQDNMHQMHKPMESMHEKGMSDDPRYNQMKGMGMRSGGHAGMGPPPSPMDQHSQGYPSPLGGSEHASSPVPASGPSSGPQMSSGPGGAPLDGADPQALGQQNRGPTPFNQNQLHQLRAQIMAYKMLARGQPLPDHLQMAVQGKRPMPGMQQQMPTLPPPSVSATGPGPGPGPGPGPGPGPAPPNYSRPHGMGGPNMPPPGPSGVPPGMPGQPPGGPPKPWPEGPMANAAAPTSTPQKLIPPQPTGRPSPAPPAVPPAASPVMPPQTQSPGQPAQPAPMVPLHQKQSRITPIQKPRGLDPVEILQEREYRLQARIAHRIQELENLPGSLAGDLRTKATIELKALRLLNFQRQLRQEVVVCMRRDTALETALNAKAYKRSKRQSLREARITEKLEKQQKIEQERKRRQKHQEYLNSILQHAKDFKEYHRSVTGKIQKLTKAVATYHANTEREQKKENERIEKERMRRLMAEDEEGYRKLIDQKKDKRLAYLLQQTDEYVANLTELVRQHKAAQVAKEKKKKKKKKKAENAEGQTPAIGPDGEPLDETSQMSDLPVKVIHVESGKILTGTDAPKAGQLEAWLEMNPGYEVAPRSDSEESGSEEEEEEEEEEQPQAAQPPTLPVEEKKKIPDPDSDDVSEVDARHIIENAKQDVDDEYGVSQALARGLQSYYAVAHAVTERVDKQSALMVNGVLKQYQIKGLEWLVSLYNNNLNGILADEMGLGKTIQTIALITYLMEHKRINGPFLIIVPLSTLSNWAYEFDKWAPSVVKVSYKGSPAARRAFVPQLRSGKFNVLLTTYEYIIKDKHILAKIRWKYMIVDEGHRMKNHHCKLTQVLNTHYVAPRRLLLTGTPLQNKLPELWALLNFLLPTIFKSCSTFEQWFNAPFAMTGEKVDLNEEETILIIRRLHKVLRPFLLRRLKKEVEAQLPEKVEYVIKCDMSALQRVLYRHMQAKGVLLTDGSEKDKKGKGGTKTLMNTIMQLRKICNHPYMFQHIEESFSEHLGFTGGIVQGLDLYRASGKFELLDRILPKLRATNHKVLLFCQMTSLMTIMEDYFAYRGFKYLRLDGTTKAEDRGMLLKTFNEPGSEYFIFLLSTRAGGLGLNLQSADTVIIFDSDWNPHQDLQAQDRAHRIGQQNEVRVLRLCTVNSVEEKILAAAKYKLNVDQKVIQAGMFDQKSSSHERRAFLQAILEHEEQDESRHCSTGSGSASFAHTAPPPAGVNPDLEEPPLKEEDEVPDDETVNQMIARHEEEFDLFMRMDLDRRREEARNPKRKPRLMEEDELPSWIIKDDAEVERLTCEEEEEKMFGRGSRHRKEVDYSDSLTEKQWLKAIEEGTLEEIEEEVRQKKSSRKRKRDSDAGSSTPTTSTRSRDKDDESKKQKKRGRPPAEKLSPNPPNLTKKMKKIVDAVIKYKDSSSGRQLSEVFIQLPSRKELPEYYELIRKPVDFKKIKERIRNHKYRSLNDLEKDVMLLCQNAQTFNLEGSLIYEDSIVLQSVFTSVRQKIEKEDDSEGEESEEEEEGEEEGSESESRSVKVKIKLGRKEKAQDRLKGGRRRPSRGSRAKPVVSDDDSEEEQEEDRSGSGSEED
ASSAY PROCEDURE: SMARCA4 Western blot degradation in MV4-11 cells
Format: cell-based
SETUP CONDITIONS: MV4-11 cells, 24 h; read-out: SMARCA4 MSD MV411 degradation 24 h: Mean external-Abs DC50

Example results:
MOLECULE: C#Cc1ccc(CNC(=O)[C@@H]2C[C@@H](O)CN2C(=O)[C@@H](NC(=O)N2CCN(Cc3ccc(-c4cnc(N5CCN6c7cc(-c8ccccc8O)nnc7NC[C@H]6C5)nc4)cc3)CC2)C(C)(C)C)cc1 [I-269]
DC50: > 100 nM
//
MOLECULE: C#Cc1ccc([C@H](C)NC(=O)[C@@H]2C[C@@H](O)CN2C(=O)[C@@H](NC(=O)[C@H]2CC3(C2)C[C@H](c2cnc(N4CCC(N5CCN6c7cc(-c8ccccc8O)nnc7NC[C@H]6C5)CC4)nc2)C3)C(C)(C)C)cc1 (stereo partly shown) [I-362]
DC50: > 100 nM
//
MOLECULE: Cc1ncsc1-c1ccc(CNC(=O)[C@@H]2C[C@@H](O)CN2C(=O)[C@@H](NC(=O)C2(F)CC2)C(C)(C)C)c(OCCCCN2CCC(c3ccnc(N4CCN5c6cc(-c7ccccc7O)nnc6NC[C@H]5C4)n3)CC2)c1 (single isomer, unassigned) [I-46]
DC50: 1 to 10 nM

Which DC50 is reported for this molecule? C#Cc1ccc(CNC(=O)[C@@H]2C[C@@H](O)CN2C(=O)[C@@H](NC(=O)[C@H]2CC3(C2)C[C@H](N2CCC(N4CCC(N5CCN6c7cc(-c8ccccc8O)nnc7NC[C@H]6C5)CC4)CC2)C3)C(C)(C)C)c(O)c1 (single isomer, unassigned) [I-241] 10 to 100 nM

* * *

STUDY TARGET: SMARCA4 (Homo sapiens, UniProt P51532)
Construct: SMARCA2/SMARCA4 protein degradation selectivity in MV4-11 cells; endogenous in cells; host or cells: MV4-11
ASSAY PROCEDURE: SMARCA4 Western blot degradation in MV4-11 cells
Type: cell-based
SETUP CONDITIONS: MV4-11 cells, 24 h; read-out: SMARCA4 MSD MV411 degradation 24 h: Mean external-Abs DC50
MEASURE NAME: DC50

Examples with answers:
MOLECULE: C#Cc1ccc(CNC(=O)[C@@H]2C[C@@H](O)CN2C(=O)[C@@H](NC(=O)N2CC3(CC(CN4CCC(N5CCC(N6CCc7[nH]c8nnc(-c9ccccc9O)cc8c7[C@H]6C)CC5)CC4)C3)C2)C(C)(C)C)cc1
DC50: > 100 nM
//
MOLECULE: C#Cc1ccc(CNC(=O)[C@@H]2C[C@@H](O)CN2C(=O)[C@@H](NC(=O)N2CCN(CC3CCN(c4cnc(N5CCc6[nH]c7nnc(-c8ccccc8O)cc7c6[C@H]5C)nc4)CC3)CC2)C(C)(C)C)cc1
DC50: > 100 nM
//
MOLECULE: C[C@H](NC(=O)[C@@H]1C[C@@H](O)CN1C(=O)[C@@H](NC(=O)[C@H]1CCC2(CC1)C[C@H](N1CCC(c3cnc(N4CCN5c6cc(-c7ccccc7O)nnc6NC[C@H]5C4)nc3)CC1)C2)C(C)(C)C)c1ccc(-c2ccnn2C)cc1 (single isomer, unassigned) [I-21]
DC50: 1 to 10 nM
//
MOLECULE: C#Cc1ccc(CNC(=O)[C@@H]2C[C@@H](O)CN2C(=O)[C@@H](NC(=O)[C@H]2CCC3(CC2)C[C@H](N2CCC(N4CCC(N5CCN6c7cc(-c8ccccc8O)nnc7NC[C@H]6C5)CC4)CC2)C3)C(C)(C)C)c(F)c1 (some centres unmarked) [I-176]
DC50: > 100 nM
//
MOLECULE: Cc1ncsc1-c1ccc(CNC(=O)[C@@H]2C[C@@H](O)CN2C(=O)[C@@H](NC(=O)N2CC3(CCC(N4CCC(c5cnc(N6CCc7[nH]c8nnc(-c9ccccc9O)cc8c7[C@@H]6C)nc5)CC4)CC3)C2)C(C)(C)C)cc1 (single isomer, unassigned)
DC50: > 100 nM
//
MOLECULE: C#Cc1ccc(CNC(=O)[C@@H]2C[C@@H](O)CN2C(=O)[C@@H](NC(=O)[C@H]2CC3(C2)C[C@H](N2CCN(C(=O)CN4CCN5c6cc(-c7ccccc7O)nnc6NC[C@H]5C4)CC2)C3)C(C)(C)C)cc1 (single isomer, unassigned) [I-239]
DC50: 10 to 100 nM
//
MOLECULE: C#Cc1ccc(CNC(=O)[C@@H]2C[C@@H](O)CN2C(=O)[C@@H](NC(=O)[C@H]2CC3(C2)C[C@H](N2CCN(C(=O)CCN4CCN5c6cc(-c7ccccc7O)nnc6NC[C@H]5C4)CC2)C3)C(C)(C)C)cc1 (some centres unmarked) [I-275]
DC50: 10 to 100 nM
//
MOLECULE: C#Cc1ccc(CNC(=O)[C@@H]2C[C@@H](O)CN2C(=O)C(c2cc(N3CCC(CN4CCC(N5CCC(N6CCN7c8cc(-c9ccccc9O)nnc8NC[C@H]7C6)CC5)CC4)CC3)no2)C(C)C)c(Cl)c1 (some centres unmarked)
DC50: 10 to 100 nM
//
MOLECULE: C#Cc1ccc(C2(NC(=O)[C@@H]3C[C@@H](O)CN3C(=O)[C@@H](NC(=O)N3CC4(CC(N5CCC(N6CCC(N7CCc8[nH]c9nnc(-c%10ccccc%10O)cc9c8[C@H]7C)CC6)CC5)C4)C3)C(C)(C)C)CC2)cc1
DC50: > 100 nM
//
MOLECULE: C#Cc1ccc(CNC(=O)[C@@H]2C[C@@H](O)CN2C(=O)[C@@H](NC(=O)[C@H]2CC[C@@H](CN3CCC(c4cnc(N5CCN6c7cc(-c8ccccc8O)nnc7NC[C@H]6C5)nc4)CC3)CC2)C(C)(C)C)cc1
DC50: > 100 nM

Next:
Which DC50 value belongs to C#Cc1ccc(CNC(=O)[C@@H]2C[C@@H](O)CN2C(=O)[C@@H](NC(=O)N2CC3(CC(N4CCC(c5cnc(N6CCc7[nH]c8nnc(-c9ccccc9O)cc8c7[C@H]6C)s5)CC4)C3)C2)C(C)(C)C)cc1 ? > 100 nM
